# PROCEDURE TEXT: Cytotoxicity in MDCK cells assessed as reduction in cell viability incubated for 48 hrs by MTT assay
# Type: cell-based, Canis lupus familiaris
# CONDITION DESCRIPTION: dog

| COMPOUND | BOUND OPERATOR | CC50 at 48 h [µg/mL] |
| --- | --- | --- |
| CC(N)C12CC3CC(CC(C3)C1)C2 (stereo not given) | = | 62 |
| FC(F)(F)c1ccccc1-c1cn(CC2=C(Cl)c3ccc(-c4cccs4)nc3CC2)nn1 | > | 300 |
| CCCCCc1cn(CC2=C(Cl)c3ccc(-c4cccs4)nc3CC2)nn1 | = | 50 |
| O=[N+]([O-])c1ccc(-c2cn(CC3=C(Cl)c4ccc(-c5cccs5)nc4CC3)nn2)cc1 | = | 40 |
| CC(C)(C)c1ccc(-c2cn(CC3=C(Cl)c4ccc(-c5cccs5)nc4CC3)nn2)cc1 | = | 172 |
